Record: compiled IC50 on Muscarinic acetylcholine receptor M3 (Rattus norvegicus, UniProt P08483) from multiple reports.
Sequence (P08483 whole entry): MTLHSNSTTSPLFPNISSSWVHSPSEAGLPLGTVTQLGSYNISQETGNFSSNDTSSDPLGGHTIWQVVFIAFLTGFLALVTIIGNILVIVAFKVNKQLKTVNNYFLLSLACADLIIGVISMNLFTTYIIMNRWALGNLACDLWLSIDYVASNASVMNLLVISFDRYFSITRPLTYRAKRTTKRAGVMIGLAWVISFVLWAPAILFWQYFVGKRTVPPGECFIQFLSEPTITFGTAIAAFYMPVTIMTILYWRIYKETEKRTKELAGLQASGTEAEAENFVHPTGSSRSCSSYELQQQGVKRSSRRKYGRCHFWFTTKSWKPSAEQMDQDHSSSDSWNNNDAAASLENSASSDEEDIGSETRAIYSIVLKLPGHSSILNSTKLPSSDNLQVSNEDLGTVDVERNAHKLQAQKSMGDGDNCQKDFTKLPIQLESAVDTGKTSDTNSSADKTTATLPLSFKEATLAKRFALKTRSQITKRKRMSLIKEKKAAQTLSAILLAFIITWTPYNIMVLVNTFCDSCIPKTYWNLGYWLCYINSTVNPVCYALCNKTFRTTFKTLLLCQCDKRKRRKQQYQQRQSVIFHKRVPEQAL
OBSERVABLE: IC50 (nM)

{"COMPOUND": "COc1cc(C(C)=O)ccc1OCCCN1CCC(c2noc3cc(F)ccc23)CC1", "RELATIONAL OPERATOR": ">", "NUMBER": 1000}
{"COMPOUND": "O=C1Nc2cccnc2N(C(=S)CC2CCCN3CCCC[C@@H]23)c2ccccc21 (some centres not stated)", "RELATIONAL OPERATOR": "=", "NUMBER": 760}
{"COMPOUND": "O=C1Nc2cccnc2N(C(=O)C[C@@H]2CCCN3CCCCC23)c2ccccc21 (some centres not stated)", "RELATIONAL OPERATOR": ">", "NUMBER": 10000}
{"COMPOUND": "O=C1Nc2cccnc2N(C(=O)C[C@H]2CCCN3CCCCC23)c2ccccc21 (some centres not stated)", "RELATIONAL OPERATOR": "=", "NUMBER": 3500}
{"COMPOUND": "O=C1Nc2cccnc2N(C(=O)CNCC2CCCN3CCCCC23)c2ccccc21 (configuration not stated)", "RELATIONAL OPERATOR": "=", "NUMBER": 800}
{"COMPOUND": "COc1cc(N)c(Cl)cc1C(=O)NC1C2CC3CN(C2)CC31.Cl (configuration not stated)", "RELATIONAL OPERATOR": ">", "NUMBER": 10000}
{"COMPOUND": "O=C1Nc2ccccc2N(C(=O)CC2CCCN3CCCCC23)c2ncccc21 (configuration not stated)", "RELATIONAL OPERATOR": ">", "NUMBER": 10000}
